assay notes: comparative solubility study, saturated solutions at 25° C., assayed by liquid chromatography
Type: physicochemical
assay setup: water, stirring of saturated solution for 3 or 5 hours, read-out: solubility in water
readout type: solubility (µg/mL)

[1] COc1cccc(OC)c1-c1cc(C(=O)NC2(C(=O)O)C3CC4CC(C3)CC2C4)nn1-c1cc[n+]([O-])c2cc(Cl)ccc12 (centres unmarked) [EXAMPLE 2]
[2] COc1cccc(OC)c1-c1cc(C(=O)NC2(C(=O)O)C3CC4CC(C3)CC2C4)nn1-c1ccnc2cc(Cl)ccc12 (centres unmarked) [SR48692]
I would appreciate it if you could say which entry, 1 or 2 , has the lower solubility value. The response must carry the label of the picked entry.
2

---

assay notes: comparative solubility study, saturated solutions at 25° C., assayed by liquid chromatography
Format: physicochemical
assay setup: organic solvent or mixture, ethanol, stirring of saturated solution for 3 or 5 hours, read-out: solubility in ethanol
readout type: solubility (µg/mL)

[P] COc1cccc(OC)c1-c1cc(C(=O)NC2(C(=O)O)C3CC4CC(C3)CC2C4)nn1-c1cc[n+]([O-])c2cc(Cl)ccc12 (centres unmarked) [EXAMPLE 2]
[Q] COc1cccc(OC)c1-c1cc(C(=O)NC2(C(=O)O)C3CC4CC(C3)CC2C4)nn1-c1ccnc2cc(Cl)ccc12 (centres unmarked) [SR48692]
Hi team, can someone confirm which has the larger solubility: P or Q ? Thanks. Your choice should be expressed through its label.
P
(P: 10300 µg/mL, Q: 1300 µg/mL)

Values from patent US5561234A
